molecular target: IFN-α4a (human, UniProt P05014 24-189); assay: cell-based or functional assay
observed-property: IC50 (pM), ISRE assay

Entry IFWM3385 (antibody, IgG1, V domains shown) VH: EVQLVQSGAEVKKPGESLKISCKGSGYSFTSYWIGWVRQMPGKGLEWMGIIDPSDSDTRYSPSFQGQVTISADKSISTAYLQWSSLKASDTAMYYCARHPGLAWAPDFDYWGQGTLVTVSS VL: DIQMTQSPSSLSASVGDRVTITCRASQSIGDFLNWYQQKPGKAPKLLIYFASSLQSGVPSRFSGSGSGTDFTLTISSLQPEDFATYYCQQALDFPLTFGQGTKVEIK ; IC50 (pM), ISRE assay = 414 pM
